Biological target: T1, RTEL1∆762 (human, UniProt Q9NZ71-6 762-1300)
T1 sequence: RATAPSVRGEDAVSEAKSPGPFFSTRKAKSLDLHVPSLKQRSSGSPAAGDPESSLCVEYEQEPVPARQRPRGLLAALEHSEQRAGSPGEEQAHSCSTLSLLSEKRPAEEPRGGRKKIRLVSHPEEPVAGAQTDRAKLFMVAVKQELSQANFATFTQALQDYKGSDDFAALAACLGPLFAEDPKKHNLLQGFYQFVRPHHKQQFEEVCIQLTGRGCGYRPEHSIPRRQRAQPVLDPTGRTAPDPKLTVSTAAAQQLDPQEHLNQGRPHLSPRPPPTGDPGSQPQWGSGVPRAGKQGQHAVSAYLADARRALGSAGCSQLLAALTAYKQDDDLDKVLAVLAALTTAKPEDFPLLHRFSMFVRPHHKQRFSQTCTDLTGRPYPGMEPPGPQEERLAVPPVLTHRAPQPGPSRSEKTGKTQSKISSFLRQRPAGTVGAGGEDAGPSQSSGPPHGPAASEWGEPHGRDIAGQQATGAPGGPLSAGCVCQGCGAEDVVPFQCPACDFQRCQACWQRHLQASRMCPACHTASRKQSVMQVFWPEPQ
Test: fluorescence anisotropy; RNA folded in 100 mM KCl; 20 mM Tris pH 7.5, 50 mM KCl, 0.5 mM TCEP, 0.5 mM MgCl2, 10% glycerol, 0.1% IGEPAL, room temperature 30 min; oligos refolded in 10 mM Tris pH 7.5, 100 mM KCl; EMSA legends give 150 or 300 mM KCl
Conditions: protein: recombinant; tags: 6xHis; chain copies: 2; label: 5' fluorescein; no G4
MEASURED_QUANTITY: pKd
// pKd is dimensionless: -log10 of concentration (M)

Problem: Item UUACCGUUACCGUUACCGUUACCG (ssRNA) [TERRA-MUT (FAM)] has what recorded pKd?
Result: 6.97
